From: the supplement of paper PMC4862054

Would you mind telling me the reported normalised viability of each entry?
test system: HCC1143; test: normalised viability (% of control), CellTiter-Blue; higher = more viable cells (about 100 = DMSO control); details: 1000 nM; incubation time: 72 h
The reply must contain the numeric value and, after it, the unit.

[[record]]
molecule = "Clc1ccc(C(c2ccccc2Cl)C(Cl)Cl)cc1 (stereo unspecified)"
outcomemeasure = "normalised viability"
observedvalue = "81.2%"

[[record]]
molecule = "N#CC[C@H](C1CCCC1)n1cc(-c2ncnc3[nH]ccc23)cn1"
outcomemeasure = "normalised viability"
observedvalue = "107%"

[[record]]
molecule = "COc1cccc2c1C(=O)c1c(O)c3c(c(O)c1C2=O)C[C@@](O)(C(=O)CO)C[C@@H]3O[C@H]1C[C@H](N)[C@H](O)[C@H](C)O1"
outcomemeasure = "normalised viability"
observedvalue = "32.2%"

[[record]]
molecule = "C=CC[C@@H]1/C=C(\\C)C[C@H](C)C[C@H](OC)[C@H]2O[C@@](O)(C(=O)C(=O)N3CCCC[C@H]3C(=O)O[C@H](/C(C)=C/[C@@H]3CC[C@@H](O)[C@H](OC)C3)[C@H](C)[C@@H](O)CC1=O)[C@H](C)C[C@@H]2OC"
outcomemeasure = "normalised viability"
observedvalue = "118%"

[[record]]
molecule = "C[C@]1(c2nc3c(C(N)=O)cccc3[nH]2)CCCN1"
outcomemeasure = "normalised viability"
observedvalue = "76.4%"


Please find the next molecule below.
// fetch normalised viability given entry S=c1[nH]cnc2nc[nH]c12 95.7%

###

tested on: HCC1937; test: normalised viability (% of control), CellTiter-Blue; higher = more viable cells (about 100 = DMSO control); details: 1000 nM; incubation time: 72 h
Would you mind telling me the reported normalised viability of each entry?
One number for each entry, in %.

Worked cases, answers included:
[[record]]
linenotation = "CC[C@]1(O)C[C@@H]2CN(CCc3c([nH]c4ccccc34)[C@@](C(=O)OC)(c3cc4c(cc3OC)N(C)[C@H]3[C@@](O)(C(=O)OC)[C@H](OC(C)=O)[C@]5(CC)C=CCN6CC[C@]43[C@@H]65)C2)C1"
unitstext = "%"
observedvalue = 15.6

[[record]]
linenotation = "N#CC[C@H](C1CCCC1)n1cc(-c2ncnc3[nH]ccc23)cn1"
unitstext = "%"
observedvalue = 94.1

[[record]]
linenotation = "CS(=O)(=O)c1ccc(C(=O)Nc2ccc(Cl)c(-c3ccccn3)c2)c(Cl)c1"
unitstext = "%"
observedvalue = 91.4

[[record]]
linenotation = "C[C@]1(c2nc3c(C(N)=O)cccc3[nH]2)CCCN1"
unitstext = "%"
observedvalue = 70


Please find the next compound below.
// fetch normalised viability given entry COc1cc(Nc2ncc3c(n2)-c2ccc(Cl)cc2C(c2c(F)cccc2OC)=NC3)ccc1C(=O)O 40

###

Would you mind telling me the reported normalised viability of each entry?
system: CAL-85-1; assay: normalised viability (% of control), CellTiter-Blue; higher = more viable cells (about 100 = DMSO control); conditions: incubation time: 72 h
One number for each entry, in %.

Worked cases, answers included:
[[record]]
molecule = "OC[C@H]1O[C@@H](n2cnc3c2N=CNC[C@H]3O)C[C@@H]1O [Pentostatin] (300 nM)"
unitstext = "%"
observedvalue = 97.8

[[record]]
molecule = "COc1cccc2cc(-c3nc([C@H]4CC[C@H](C(=O)O)CC4)n4ncnc(N)c34)[nH]c12 [OSI-027] (300 nM)"
unitstext = "%"
observedvalue = 75.5

[[record]]
molecule = "COc1cc(Nc2ncc3c(n2)-c2ccc(Cl)cc2C(c2c(F)cccc2OC)=NC3)ccc1C(=O)O [MLN8237] (300 nM)"
unitstext = "%"
observedvalue = 44

[[record]]
molecule = "Nc1nc(Cl)nc2c1ncn2[C@H]1C[C@H](O)[C@@H](CO)O1 [Cladribine] (30 nM)"
unitstext = "%"
observedvalue = 102

[[record]]
molecule = "Clc1ccc(C(c2ccccc2Cl)C(Cl)Cl)cc1 (stereo unspecified) [Mitotane] (300 nM)"
unitstext = "%"
observedvalue = 94.5


Please find the next molecule below.
// fetch normalised viability given entry Cc1ccc(F)c(NC(=O)Nc2ccc(-c3cccc4[nH]nc(N)c34)cc2)c1 [Linifanib] (30 nM) 118
